In this section, each of the compounds is paired with its reported melting point.

Take a look at these entries with their results.
Smiles Representation: COCC(=O)N[C@H]1CC[C@H](CCN2CC=C(c3cccc(C#N)c3)CC2)CC1
melting point: 117 °C
//
Smiles Representation: CC(=O)CN1CCC(CCN2CCN(c3ccc(F)c(C#N)c3F)CC2)CC1
melting point: 108 °C
//
Smiles Representation: O=C(CC(F)(F)F)N[C@H]1CC[C@H](CCN2CCN(c3cccc4ncccc34)CC2)CC1
melting point: 207 °C

Task: Requested field: melting point. Item: COCC(=O)N[C@H]1CC[C@H](CCN2CCN(c3cc(C#N)cc(C(F)(F)F)c3)CC2)CC1
Result: 140 °C

Task: Requested field: melting point. Item: NC(=O)CCC(=O)N[C@H]1CC[C@H](CCN2CCN(c3ccccc3F)CC2)CC1
Result: 255 °C

Task: Requested field: melting point. Item: Cl.N#CCC(=O)N[C@H]1CC[C@@H](CCN2CCN(c3ccccc3F)CC2)CC1
Result: 153 °C
